Measured TGI accompanies every entry in the list below.
- Test system: MCF7 breast
- experiment.description: NCI tumour cell line growth inhibition, 48 h

- compound: "Nc1ccc(-c2ccc(Nc3cc(S(=O)(=O)O)c(N)c4c3C(=O)c3ccccc3C4=O)cc2)c(S(=O)(=O)O)c1"
  target.or.system: "MCF7 breast"
  comparison.sign: ">"
  TGI (µM): 100
- compound: "CCCC(=O)OCC1(CO)C/C(=C/CC(C(C)C)C(C)C)C(=O)O1 (stereo not drawn)"
  target.or.system: "MCF7 breast"
  comparison.sign: ">"
  TGI (µM): 100
- compound: "CC1=C(C(=O)NNC(=O)C(N)=O)CC(C(=O)NNC(=O)C(N)=O)=C(C)N1"
  target.or.system: "MCF7 breast"
  comparison.sign: ">"
  TGI (µM): 100
- compound: "CCOC(=O)c1ccc(NC(=O)O/N=C(/Cl)C(C)C)cc1"
  target.or.system: "MCF7 breast"
  comparison.sign: "="
  TGI (µM): 21.3
- compound: "OC(COc1cccc2ccccc12)CN1CCN(c2ccc(Cl)cc2)CC1 (stereo not drawn)"
  target.or.system: "MCF7 breast"
  comparison.sign: ">"
  TGI (µM): 100
- compound: "COc1nc2c(cc1S(=O)(=O)c1ccccc1)CCc1c-2cnn1Cc1ccccc1"
  target.or.system: "MCF7 breast"
  comparison.sign: "="
  TGI (µM): 38.9
- compound: "CC(C)C(C/C=C1/CC(CO)(COC(=O)C(C)(C)C)OC1=O)C(C)C (stereo not drawn)"
  target.or.system: "MCF7 breast"
  comparison.sign: "="
  TGI (µM): 35.6
- compound: "C=C(C)[C@@H]1CC[C@]2(C(=O)Nc3ccccn3)CC[C@]3(C)[C@H](CC[C@@H]4[C@@]5(C)CCCNC(C)(C)[C@@H]5CC[C@]43C)[C@@H]12"
  target.or.system: "MCF7 breast"
  comparison.sign: "="
  TGI (µM): 3.07
